Recorded values, source patent US5158947A.

# subject-of-test: σ-receptor (Rattus norvegicus)
# Construct: all of the cerebra, other than the cerebellum, of Wistar male rats; from tissue; host or cells: rat brain (cerebra without cerebellum), crude washed membranes
# Sequence (Q9R0C9 whole entry): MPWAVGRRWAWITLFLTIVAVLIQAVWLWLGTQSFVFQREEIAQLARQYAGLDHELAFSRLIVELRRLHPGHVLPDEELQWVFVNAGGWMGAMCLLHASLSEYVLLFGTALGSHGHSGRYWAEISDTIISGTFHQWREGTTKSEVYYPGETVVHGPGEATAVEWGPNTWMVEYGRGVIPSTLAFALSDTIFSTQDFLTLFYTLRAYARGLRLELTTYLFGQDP
# test: Affinity to σ-receptor ([3H]3PPP binding, rat cerebra without cerebellum)
# Parameters: species or system Wistar male rats
# measurement-conditions: 3 nM [3H]3PPP, 25° C., 90 minutes; non-specific: 1 μM haloperidol; read-out: Affinity to δ-Receptor IC50
Each entry below carries its recorded pIC50.
When answering, recall that pIC50 equals minus log10 of the concentration in mol/L, and write that number alone.

Some molecules with recorded pIC50:
substance-smiles: O=C1COc2ccccc2C(=O)N1CCCCN1CC=C(c2ccccc2)CC1
test-value: 7.92
//
substance-smiles: O=C1c2ccccc2OCCN1CCCCN1CCC(c2ccccc2)CC1
test-value: 7.85
//
substance-smiles: O=C1CNc2ccccc2C(=O)N1CCCCN1CCC(c2ccc(Cl)cc2)CC1
test-value: 7.79
//
substance-smiles: O=C1CCc2ccccc2C(=O)N1CCCCN1CCC(c2ccccc2)CC1
test-value: 8.43
//
substance-smiles: O=C1c2ccccc2OCCN1CCCCN1CCC(c2ccc(Cl)cc2)CC1
test-value: 7.93

Sample `O=C1CSc2ccccc2C(=O)N1CCCCCN1CCC(c2ccc(Cl)cc2)CC1` — what was its pIC50? 7.75

Sample `O=C1CCc2ccccc2C(=O)N1CCCCN1CCC(c2ccc(Cl)cc2)CC1` — what was its pIC50? 8.19

Sample `CN1CC(=O)N(CCCCN2CCC(c3ccccc3)CC2)C(=O)c2ccccc21` — what was its pIC50? 7.86

Sample `O=C1CCc2ccccc2C(=O)N1CCCCCN1CCC(c2ccccc2)CC1` — what was its pIC50? 8.44
